Values from patent US4287206A

Experiment: Determination of the acute toxicity to mice (BEHRENS and KARBER)
Conditions: mouse, in vivo, ip, intraperitoneal, read-out: LD50 (intraperitoneal administration)
Observable: LD50 (mg/kg)
Quick reminder: number only, in mg/kg, skip the unit.

input: Fill blank: measured LD50 of the compound CC1CC(c2ccc(Cl)cc2)C(c2ccccc2)C(=O)O1 (centres unmarked) [Example I] is ____.
output: 520

input: Now consider CC(O)CC(c1ccc(Cl)cc1)C(C(=O)O)c1ccccc1 (centres unmarked) [product IV] .
output: 160
